- study.target: MMP-3 (Homo sapiens, UniProt P08254)
- Construct: C-terminal truncated cDNA in which the cDNA encodes human prostromelysin
- Sequence (P08254 100-272 limits assumed): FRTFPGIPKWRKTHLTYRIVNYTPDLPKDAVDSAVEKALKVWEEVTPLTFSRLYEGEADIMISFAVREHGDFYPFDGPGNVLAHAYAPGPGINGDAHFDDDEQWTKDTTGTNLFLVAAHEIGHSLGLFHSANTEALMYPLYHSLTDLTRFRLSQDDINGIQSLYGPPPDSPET
- protocol.details: Test 1 Test on MMP-3 inhibiting activity (fluorogenic peptide substrate)
- particulars: activated MMP-3, 37° C.; read-out: MMP-3 inhibition activity value
Form field: IC50 (one value per entry).

{"structure.smiles.string": "CS(=O)(=O)c1ccc(Oc2ccc(S(=O)(=O)N(CCC(=O)O)CC(=O)NO)cc2)cc1", "reading.unit": "nM", "IC50": 37.1}
{"structure.smiles.string": "CC(C)CN(C1(C(=O)NO)CCC1)S(=O)(=O)c1ccc(Oc2ccc(S(C)(=O)=O)cc2)cc1", "reading.unit": "nM", "IC50": 29.9}
{"structure.smiles.string": "CCOC(=O)CCN(C1(C(=O)NO)CCCC1)S(=O)(=O)c1ccc(Oc2ccc(S(C)(=O)=O)cc2)cc1", "reading.unit": "nM", "IC50": 14.3}
{"structure.smiles.string": "CCOC(=O)CCN(C1(C(=O)NO)CCOCC1)S(=O)(=O)c1ccc(Oc2ccc(S(C)(=O)=O)cc2)cc1", "reading.unit": "nM", "IC50": 59}
{"structure.smiles.string": "CCOC(=O)CN(C1(C(=O)NO)CCCC1)S(=O)(=O)c1ccc(Oc2ccc(S(C)(=O)=O)cc2)cc1", "reading.unit": "nM", "IC50": 21.6}
{"structure.smiles.string": "CC(C)OCCN(CC(=O)NO)S(=O)(=O)c1ccc(Oc2ccc(S(C)(=O)=O)cc2)cc1", "reading.unit": "nM", "IC50": 4.8}
{"structure.smiles.string": "CS(=O)(=O)c1ccc(Oc2ccc(S(=O)(=O)NCC(=O)NO)cc2)cc1", "reading.unit": "nM", "IC50": 13.5}

###

- study.target: MMP-2 (Homo sapiens)
- Sequence (P08253 110-660): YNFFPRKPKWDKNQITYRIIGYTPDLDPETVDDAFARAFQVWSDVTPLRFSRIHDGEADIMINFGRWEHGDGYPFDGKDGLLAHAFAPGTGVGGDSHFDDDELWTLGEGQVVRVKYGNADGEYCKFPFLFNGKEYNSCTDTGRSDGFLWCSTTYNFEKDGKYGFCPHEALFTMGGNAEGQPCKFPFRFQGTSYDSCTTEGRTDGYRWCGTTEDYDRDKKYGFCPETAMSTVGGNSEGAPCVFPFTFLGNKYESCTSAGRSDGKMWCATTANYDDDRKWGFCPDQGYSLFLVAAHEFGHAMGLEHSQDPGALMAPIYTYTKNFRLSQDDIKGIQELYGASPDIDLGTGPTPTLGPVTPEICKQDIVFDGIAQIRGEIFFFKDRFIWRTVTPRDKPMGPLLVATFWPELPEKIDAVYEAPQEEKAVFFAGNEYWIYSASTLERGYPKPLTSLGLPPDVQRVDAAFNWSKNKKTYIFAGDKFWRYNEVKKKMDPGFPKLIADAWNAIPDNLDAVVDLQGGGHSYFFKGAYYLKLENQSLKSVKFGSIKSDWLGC
- protocol.details: Test 3 MMP-2 inhibition activity test (gelatinase activity assay kit)
- particulars: activated human MMP-2, biotin labeled gelatin
pIC50: −log10 of the molar value.
Form field: pIC50 (one value per entry).

{"compound": "CCOC(=O)CN(CC(=O)NO)S(=O)(=O)c1ccc(Oc2ccc(S(C)(=O)=O)cc2)cc1", "pIC50": 5.92}
{"compound": "COCCN(CC(=O)NO)S(=O)(=O)c1ccc(Oc2ccc(S(C)(=O)=O)cc2)cc1", "pIC50": "< 7.00"}
{"compound": "CS(=O)(=O)c1ccc(Oc2ccc(S(=O)(=O)N(CC(=O)NO)Cc3ccncc3)cc2)cc1", "pIC50": "> 7.00"}
{"compound": "CC(C)CN(C1(C(=O)NO)CCCC1)S(=O)(=O)c1ccc(Oc2ccc(S(C)(=O)=O)cc2)cc1", "pIC50": "> 7.00"}
{"compound": "CS(=O)(=O)c1ccc(Oc2ccc(CC3Sc4ccc(C(=O)O)cc4N(CC(=O)NO)C3=O)cc2)cc1 (stereo not shown)", "pIC50": "< 7.00"}
{"compound": "CS(=O)(=O)c1ccc(Oc2ccc(S(=O)(=O)N(CCC(=O)O)C3(C(=O)NO)CCCC3)cc2)cc1", "pIC50": "< 5.00"}
{"compound": "CC(C)(C(=O)NO)N(Cc1ccccc1)S(=O)(=O)c1ccc(Oc2ccc(S(C)(=O)=O)cc2)cc1", "pIC50": 5.62}

###

- study.target: UniProt P50281
- protocol.details: Test 5 MMP-14 (MT1-MMP) inhibiting activity test
- particulars: human recombinant MT1-MMP, 37° C.; read-out: MMP-14 inhibition activity value

{"molecule": "COc1ccc(Oc2ccc(CC3Sc4ccc(C(=O)O)cc4N(CC(=O)NO)C3=O)cc2)cc1 (centres unmarked) [compound 1, reference compound]", "IC50": "87.3 nM"}
{"molecule": "CS(=O)(=O)c1ccc(Oc2ccc(S(=O)(=O)NC3(C(=O)NO)CCC3)cc2)cc1 [Example 48]", "IC50": "> 1500 nM"}
{"molecule": "CS(=O)(=O)c1ccc(Oc2ccc(S(=O)(=O)N(CC(=O)NO)Cc3ccncc3)cc2)cc1 [Example 42]", "IC50": "> 5000 nM"}
{"molecule": "CCOC(=O)CN(CC(=O)NO)S(=O)(=O)c1ccc(Oc2ccc(S(C)(=O)=O)cc2)cc1 [Example 22]", "IC50": "668 nM"}
{"molecule": "CCOC(=O)CN(C1(C(=O)NO)CCCC1)S(=O)(=O)c1ccc(Oc2ccc(S(C)(=O)=O)cc2)cc1 [Example 23]", "IC50": "> 5000 nM"}
{"molecule": "CS(=O)(=O)c1ccc(Oc2ccc(S(=O)(=O)N(CCC(=O)O)C3(C(=O)NO)CCCC3)cc2)cc1 [Example 27]", "IC50": "> 5000 nM"}
{"molecule": "CC(C)CN(CC(=O)NO)S(=O)(=O)c1ccc(Oc2ccc(S(C)(=O)=O)cc2)cc1 [Example 5]", "IC50": "105 nM"}
{"molecule": "CC(C)CN(C1(C(=O)NO)CCOCC1)S(=O)(=O)c1ccc(Oc2ccc(S(C)(=O)=O)cc2)cc1 [Example 15]", "IC50": "> 5000 nM"}
